B1: library; numbered along this chain (parent)
chain: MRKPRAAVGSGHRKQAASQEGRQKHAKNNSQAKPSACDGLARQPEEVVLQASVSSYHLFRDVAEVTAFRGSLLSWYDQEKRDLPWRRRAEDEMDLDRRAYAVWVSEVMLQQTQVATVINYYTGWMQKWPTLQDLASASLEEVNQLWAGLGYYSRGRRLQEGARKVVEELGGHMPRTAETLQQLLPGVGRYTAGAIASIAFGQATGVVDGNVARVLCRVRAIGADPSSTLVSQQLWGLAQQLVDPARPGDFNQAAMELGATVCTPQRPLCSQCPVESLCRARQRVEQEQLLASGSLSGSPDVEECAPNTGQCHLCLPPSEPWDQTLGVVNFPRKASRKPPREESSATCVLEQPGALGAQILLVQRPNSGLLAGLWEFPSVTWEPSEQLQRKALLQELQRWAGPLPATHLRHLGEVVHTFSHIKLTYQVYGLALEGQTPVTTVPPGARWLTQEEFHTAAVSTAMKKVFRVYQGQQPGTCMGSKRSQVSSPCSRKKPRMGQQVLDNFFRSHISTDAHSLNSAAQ

Variants of: B1
procedure_text: 8OG:A repair function score (normalized; synonymous = 0, nonsense = -1) (normalized log-likelihood score); higher = more repair activity (WT-like);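 note: cells sorted at 72 h after reporter transfection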
recorded_conditions: with 8OG:A DNA repair reporter (GFP) in HEK-293 MUTYH KO cells
8OG:A repair function score vs -0.3: at or above is Condition met, below is Condition not met.

Does 8OG:A repair function score meet or surpass -0.3 for W85T ?
Condition not met

Does 8OG:A repair function score meet or surpass -0.3 for E382S ?
Condition met

Does 8OG:A repair function score meet or surpass -0.3 for Q288D ?
Condition met

Does 8OG:A repair function score meet or surpass -0.3 for A405D ?
Condition met

Does 8OG:A repair function score meet or surpass -0.3 for R246G ?
Condition not met

Does 8OG:A repair function score meet or surpass -0.3 for M125S ?
Condition not met

Does 8OG:A repair function score meet or surpass -0.3 for G123N ?
Condition met

Does 8OG:A repair function score meet or surpass -0.3 for W124I ?
Condition not met

Does 8OG:A repair function score meet or surpass -0.3 for V48I ?
Condition met

Does 8OG:A repair function score meet or surpass -0.3 for M125P ?
Condition not met

Does 8OG:A repair function score meet or surpass -0.3 for N517W ?
Condition met

Does 8OG:A repair function score meet or surpass -0.3 for Y121G ?
Condition not met

Does 8OG:A repair function score meet or surpass -0.3 for E433G ?
Condition met

Does 8OG:A repair function score meet or surpass -0.3 for L257D ?
Condition not met

Does 8OG:A repair function score meet or surpass -0.3 for L373M ?
Condition met

Does 8OG:A repair function score meet or surpass -0.3 for Q252M ?
Condition not met

Does 8OG:A repair function score meet or surpass -0.3 for I118L ?
Condition met

Does 8OG:A repair function score meet or surpass -0.3 for D208S ?
Condition not met

Does 8OG:A repair function score meet or surpass -0.3 for L295I ?
Condition met

Does 8OG:A repair function score meet or surpass -0.3 for D82M ?
Condition met

Does 8OG:A repair function score meet or surpass -0.3 for R389N ?
Condition not met

Does 8OG:A repair function score meet or surpass -0.3 for S276R ?
Condition met

Does 8OG:A repair function score meet or surpass -0.3 for D61L ?
Condition met

Does 8OG:A repair function score meet or surpass -0.3 for C304A ?
Condition met

Does 8OG:A repair function score meet or surpass -0.3 for S518P ?
Condition met

Does 8OG:A repair function score meet or surpass -0.3 for P273L ?
Condition not met

Does 8OG:A repair function score meet or surpass -0.3 for Q351I ?
Condition met

Does 8OG:A repair function score meet or surpass -0.3 for K3L ?
Condition met

Does 8OG:A repair function score meet or surpass -0.3 for G309R ?
Condition met

Does 8OG:A repair function score meet or surpass -0.3 for H57C ?
Condition not met

Does 8OG:A repair function score meet or surpass -0.3 for V207R ?
Condition not met

Does 8OG:A repair function score meet or surpass -0.3 for A63M ?
Condition met

Does 8OG:A repair function score meet or surpass -0.3 for L83R ?
Condition not met

Does 8OG:A repair function score meet or surpass -0.3 for R42S ?
Condition met

Does 8OG:A repair function score meet or surpass -0.3 for Y428T ?
Condition not met

Does 8OG:A repair function score meet or surpass -0.3 for G222I ?
Condition not met

Does 8OG:A repair function score meet or surpass -0.3 for Q388Y ?
Condition met

Does 8OG:A repair function score meet or surpass -0.3 for T179K ?
Condition met

Does 8OG:A repair function score meet or surpass -0.3 for I359P ?
Condition not met

Does 8OG:A repair function score meet or surpass -0.3 for R86Y ?
Condition not met

Does 8OG:A repair function score meet or surpass -0.3 for P247V ?
Condition not met

Does 8OG:A repair function score meet or surpass -0.3 for A36G ?
Condition met

Does 8OG:A repair function score meet or surpass -0.3 for R87Q ?
Condition met

Does 8OG:A repair function score meet or surpass -0.3 for H172I ?
Condition met

Does 8OG:A repair function score meet or surpass -0.3 for Y152I ?
Condition not met

Does 8OG:A repair function score meet or surpass -0.3 for L360C ?
Condition met

Does 8OG:A repair function score meet or surpass -0.3 for E413F ?
Condition met

Does 8OG:A repair function score meet or surpass -0.3 for V102G ?
Condition not met

Does 8OG:A repair function score meet or surpass -0.3 for S226L ?
Condition not met

Does 8OG:A repair function score meet or surpass -0.3 for P84L ?
Condition met

Does 8OG:A repair function score meet or surpass -0.3 for P437W ?
Condition met

Does 8OG:A repair function score meet or surpass -0.3 for Q499A ?
Condition met

Does 8OG:A repair function score meet or surpass -0.3 for G412D ?
Condition met

Does 8OG:A repair function score meet or surpass -0.3 for Q240V ?
Condition not met

Does 8OG:A repair function score meet or surpass -0.3 for Q78K ?
Condition met

Does 8OG:A repair function score meet or surpass -0.3 for T455M ?
Condition met

Does 8OG:A repair function score meet or surpass -0.3 for R506S ?
Condition met

Does 8OG:A repair function score meet or surpass -0.3 for T417P ?
Condition not met

Does 8OG:A repair function score meet or surpass -0.3 for A445T ?
Condition met

Does 8OG:A repair function score meet or surpass -0.3 for Q78L ?
Condition met

Does 8OG:A repair function score meet or surpass -0.3 for R467Y ?
Condition met

Does 8OG:A repair function score meet or surpass -0.3 for G222E ?
Condition not met

Does 8OG:A repair function score meet or surpass -0.3 for K390H ?
Condition met

Does 8OG:A repair function score meet or surpass -0.3 for S378M ?
Condition met

Does 8OG:A repair function score meet or surpass -0.3 for P174Q ?
Condition not met

Does 8OG:A repair function score meet or surpass -0.3 for E382N ?
Condition met

Does 8OG:A repair function score meet or surpass -0.3 for R88S ?
Condition met

Does 8OG:A repair function score meet or surpass -0.3 for K463E ?
Condition met

Does 8OG:A repair function score meet or surpass -0.3 for N517A ?
Condition met

Does 8OG:A repair function score meet or surpass -0.3 for Q473R ?
Condition met

Does 8OG:A repair function score meet or surpass -0.3 for Q435M ?
Condition met

Does 8OG:A repair function score meet or surpass -0.3 for T179Q ?
Condition met

Does 8OG:A repair function score meet or surpass -0.3 for G155W ?
Condition met

Does 8OG:A repair function score meet or surpass -0.3 for R189M ?
Condition not met

Does 8OG:A repair function score meet or surpass -0.3 for V274M ?
Condition met

Does 8OG:A repair function score meet or surpass -0.3 for T511I ?
Condition met

Does 8OG:A repair function score meet or surpass -0.3 for E385W ?
Condition met

Does 8OG:A repair function score meet or surpass -0.3 for Y100V ?
Condition not met

Does 8OG:A repair function score meet or surpass -0.3 for K3H ?
Condition met

Does 8OG:A repair function score meet or surpass -0.3 for D61G ?
Condition met

Does 8OG:A repair function score meet or surpass -0.3 for N119I ?
Condition met

Does 8OG:A repair function score meet or surpass -0.3 for A89M ?
Condition met

Does 8OG:A repair function score meet or surpass -0.3 for E302M ?
Condition met

Does 8OG:A repair function score meet or surpass -0.3 for Q435W ?
Condition met

Does 8OG:A repair function score meet or surpass -0.3 for F250P ?
Condition not met
